The following compounds are shown together with reported log10 of Ratio values.
assay_target: Fatty-acid amide hydrolase 1 (Rattus norvegicus)
measurement_notes: Ratio of Kinact to Ki for histidine6-tagged rat FAAH
# log10 transformed; quantity=Ratio; unit=M⁻¹ s⁻¹

Solved cases (5 shown):
Cc1noc(NC(=O)N2CCN(Cc3sc4ccccc4c3C)CC2)c1C	3.16
Cc1c(C(C)C2CCN(C(=O)Nc3cccnc3)CC2)sc2ccccc12 (stereo in doubt; 17-E2)	2.04
Cc1ccc(NC(=O)N2CCN(Cc3sc4ccccc4c3Cl)CC2)cn1	2.12
CCc1c(CN2CCN(C(=O)Nc3cccnc3)CC2)sc2ccc(F)cc12	2.79
Cc1c(C(C)C2CCN(C(=O)Nc3cccnc3)CC2)sc2ccccc12 (racemic)	1.68

Q: May I ask what log10 of Ratio has been recorded for Cc1c(CN2CCN(C(=O)Nc3ccccc3)CC2)sc2ccccc12 ?
Result: 2.88

Q: // returns reported log10 of Ratio for input Cc1c(CC2CCN(C(=O)Nc3cccnc3)CC2)sc2ccccc12
Result: 3.42

Q: Entry Cc1c(CN2CCN(C(=O)Nc3cccnc3)CC2)sc2cccc(F)c12 : reported log10 of Ratio = ?
Result: 3.08

Q: Given the compound Cc1ccc2c(Cl)c(CN3CCN(C(=O)Nc4ccc(C)nc4)CC3)sc2c1 , what is its reported log10 of Ratio?
Result: 1.15

Q: Given the compound Cc1c(CN2CCN(C(=O)Nc3ccc(N(C)C)nc3)CC2)sc2ccccc12 , what is its reported log10 of Ratio?
Result: 3.03

Q: # query: log10 of Ratio of entry Cc1ccc(NC(=O)N2CCN(Cc3sc4ccccc4c3C)CC2)cn1
Result: 2.59

Q: Look at this compound and give its reported log10 of Ratio. Cc1c(CN2CCN(C(=O)Nc3ccc(-c4ccccc4)nc3)CC2)sc2ccccc12
Result: 3.09

Q: Consider the compound shown here: Cc1c(CN2CCN(C(=O)Nc3ccc(Cl)nc3)CC2)sc2ccccc12 What is its recorded log10 of Ratio?
Result: 2.38

Q: Need log10 of Ratio, item COc1ccc(NC(=O)N2CCN(Cc3sc4ccccc4c3C)CC2)cn1
Result: 3.03

Q: log10 of Ratio for COc1ccc2c(C)c(CN3CCN(C(=O)Nc4cccnc4)CC3)sc2c1 ?
Result: 2.05
